Recorded values, source patent US20220313698A1.

# TARGET: CFTR-mediated chloride transport (Homo sapiens)
# METHOD_DESCRIPTION: Corrector Assay A - membrane potential dye assay (enteroid cells)
# REPORTED_CONDITIONS: read-out: Corrector Assay A EC50; human intestinal enteroid cells, 18-24 h incubation; acute 10 μM forskolin + 300 nM ivacaftor
pEC50: −log10 of the molar value.
# pEC50 per entry

Request: pEC50, test system CFTR-mediated chloride transport (Homo sapiens), entry CC(C)(C)c1ccc2c(n1)N1C[C@@H](CCC(C(=O)O)Nc3cccc(n3)S(=O)(=O)NC2=O)CC1(C)C (single isomer, unassigned) [Compound 231]
< 5.52

Others:
Param readout= pEC50; system= CFTR-mediated chloride transport (Homo sapiens); entry= Cc1ccc2nc3c(cc2c1)C(=O)NS(=O)(=O)c1cccc(n1)N[C@H](c1cc(C(C)(C)C)ccn1)CC[C@@H]1CN3C(C)(C)C1 (single isomer, unassigned) [Compound 5] ; returns value.
> 6.00

Continue with CC(C)(C)c1ccnc([C@H]2CC[C@@H]3CN(c4nc(Br)ccc4C(=O)NS(=O)(=O)c4cccc(n4)N2)C(C)(C)C3)c1 [Compound 55]
> 6.00

Proceed to CC(C)(C)c1ccc2c(n1)N1C[C@@H](CCC(c3ccc(CCC#N)cn3)Nc3cccc(n3)S(=O)(=O)NC2=O)CC1(C)C (single isomer, unassigned) [Compound 145]
> 6.00

// next record CC(C)(C)c1ccc2c(n1)N1C[C@@H](CCC(c3ccc(Cl)cn3)Nc3cccc(n3)S(=O)(=O)NC2=O)CC1(C)C (single isomer, unassigned) [Compound 209]
> 6.00
